- Tested on: Hepatitis C virus
- assay-remarks: Antiviral activity against Hepatitis C virus subtype 1b
- Format: functional, organism-based, Hepacivirus hominis
- study-conditions: genotype 1b
recorded-metric: EC50 (µM)

                           structure_string  recorded_metric  qualifier_operator  result_number
0  COc1ccc(-n2c(Br)nc3c(NCCN4CCOCC4)nc(C)nc32)cc1OC             EC50                   =            6.7
1  COc1ccc(-n2c(C#Cc3ccccc3)nc3c(NCCN4CCOCC4)nc(C)nc32)cc1OC             EC50                   =             30
2  C#Cc1nc(NCCN2CCOCC2)c2nc(C)n(-c3ccc(OC)c(OC)c3)c2n1             EC50                   =             13
3  COc1ccc(-n2c(C)nc3c(NCCN4CCOCC4)nc(C)nc32)cc1OC             EC50                   >             44
4  COc1ccc(-n2c(C)nc3c(NCCN4CCOCC4)nc(-c4ccc(C#N)cc4)nc32)cc1OC             EC50                   =            3.9
5  COc1ccc(-n2c(-c3ccc(F)cc3)nc3c(NCCN4CCOCC4)nc(C)nc32)cc1OC             EC50                   >             44
6  COc1ccc(-n2c(C)nc3c(NCCN4CCOCC4)ncnc32)cc1OC             EC50                   =             19
7  COc1ccc(-n2c(C)nc3c(NCCN4CCOCC4)nc(-c4cccc(NC(C)=O)c4)nc32)cc1OC             EC50                   =            5.9
8  COc1ccc(-n2c(CO)nc3c(NCCN4CCOCC4)nc(C)nc32)cc1OC             EC50                   >             44
